- experimental protocol: RP, Waters ACQUITY UPLC HSS T3, 150 × 2.1 mm, 1.8 µm, 45 °C, 0.6 mL/min, estimated dead time 0.55 min; A: water + 0.1% formic acid, pH 3; B: acetonitrile + 0.1% formic acid, pH 3; gradient (min/%B) 0/1 0.1/1 10/55 10.15/65 10.30/75 10.45/85 10.60/95 10.70/100 11/100 11.55/100 11.65/1 11.70/1 11.80/1 11.90/1 12/1 12.10/1 12.15/1 12.65/1
- measurement conditions: stereoisomer not certain
Counter-ions that a name gives are not always drawn.
Classify on LC retention time using band A (below 2 min), band B (2 min to below 4 min), band C (4 min or more)

>  <compound>
O=C(O)CNC(=O)c1cccc(O)c1 [3-Hydroxyhippuric acid]

>  <assigned label>
band B

$$$$
>  <compound>
O=c1[nH]cnc2c1ncn2C1OC(CO)C(O)C1O (configuration not stated)

>  <assigned label>
band A

$$$$
>  <compound>
CC(CCC(=O)NCCS(=O)(=O)O)C1CCC2C3CCC4CC(OS(=O)(=O)O)CCC4(C)C3CCC12C (configuration not stated) [Taurolithocholic acid 3-sulfate]

>  <assigned label>
band C

$$$$
>  <compound>
O=C(O)c1cc(O)cc(O)c1 [3,5-Dihydroxybenzoic acid]

>  <assigned label>
band B

$$$$
>  <compound>
Cc1cc2nc3c(=O)[nH]c(=O)nc-3n(CC(O)C(O)C(O)CO)c2cc1C (configuration not stated)

>  <assigned label>
band B

$$$$
>  <compound>
O=C(O)CNC(=O)c1ccccc1O

>  <assigned label>
band C

$$$$
>  <compound>
CC(=O)NC(CC(=O)O)C(=O)O (configuration not stated)

>  <assigned label>
band A

$$$$
>  <compound>
O=C(O)C(O)Cc1c[nH]c2ccccc12 (configuration not stated)

>  <assigned label>
band C

$$$$
>  <compound>
O=C(O)C(O)c1ccc(O)cc1 (configuration not stated) [p-Hydroxymandelic acid]

>  <assigned label>
band A

$$$$
>  <compound>
O=C(O)CCCC(=O)O

>  <assigned label>
band A

$$$$
>  <compound>
O=C(O)CC(CC(=O)O)C(=O)O

>  <assigned label>
band A

$$$$
>  <compound>
O=C(O)CC(C(=O)O)C(O)C(=O)O (configuration not stated)

>  <assigned label>
band A

$$$$
>  <compound>
O=c1[nH]c(=O)c2ncn(C3OC(CO)C(O)C3O)c2[nH]1 (configuration not stated)

>  <assigned label>
band A

$$$$
>  <compound>
CC12CCC3C(CC=C4CC(OC5OC(C(=O)O)C(O)C(O)C5O)CCC43C)C1CCC2=O (configuration not stated) [Dehydroisoandrosterone 3-glucuronide]

>  <assigned label>
band C

$$$$
>  <compound>
O=C(O)C1OC(Oc2c[nH]c3ccccc23)C(O)C(O)C1O (configuration not stated) [Indoxyl glucuronide]

>  <assigned label>
band B

$$$$
>  <compound>
CC12CCC3C(CC=C4CC(OS(=O)(=O)O)CCC43C)C1CCC2=O (configuration not stated) [Dehydroepiandrosterone sulfate]

>  <assigned label>
band C

$$$$
>  <compound>
O=C(O)CNC(=O)c1ccc(O)cc1 [4-Hydroxyhippuric acid]

>  <assigned label>
band B

$$$$
